// provenance: patent US20230233569A1

# SYSTEM_UNDER_TEST: KRAS G12D (Homo sapiens, UniProt P01116+P62937, G12D)
# Sequence (P01116 1-169 isoform P01116-2 G12D limits assumed, one chain of several): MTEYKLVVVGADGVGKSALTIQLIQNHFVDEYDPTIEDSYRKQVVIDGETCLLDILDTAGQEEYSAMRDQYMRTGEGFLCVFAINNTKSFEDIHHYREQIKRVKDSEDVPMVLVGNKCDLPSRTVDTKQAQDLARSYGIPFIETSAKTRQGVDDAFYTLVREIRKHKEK
# PROTOCOL_DETAILS: Disruption of BRAF RBD interaction with Ras (FRET / MOA assay, with Cyclophilin A)
# Format: biochemical
# EXPERIMENTAL_PARAMETERS: read-out: KRAS G12D FRET data, IC50
MEASURED_QUANTITY: IC50

Recorded results for 2 molecules are shown here.
molecule="CCn1c(-c2cccnc2[C@H](C)OC)c2c3cc(ccc31)-c1csc(n1)C[C@H](NC(=O)[C@H](C(C)C)N(C)C(=O)N1CC(S(=O)(=O)NC)C1)C(=O)N1CCC[C@H](N1)C(=O)OCC(C)(C)C2 (atropisomer, axis not shown)" measured_quantity=IC50 reading="0.1 to 1 µM"
molecule="CCn1c(-c2cccnc2[C@H](C)OC)c2c3cc(ccc31)-c1csc(n1)C[C@H](NC(=O)[C@H](C(C)C)N(C)C(=O)N1CC3(CC(N(C)CCOC)C3)C1)C(=O)N1CCC[C@H](N1)C(=O)OCC(C)(C)C2 (atropisomer, axis not shown)" measured_quantity=IC50 reading="1 to 10 µM"

Then this molecule:
Prompt line: Lab request: please report IC50 under test system KRAS G12D (Homo sapiens, UniProt P01116+P62937, G12D) for CCn1c(-c2cnccc2COC)c2c3cc(ccc31)-c1cc(O)cc(c1)C[C@H](NC(=O)[C@H](C(C)C)N(C)C(=O)[C@@H]1CCCN(C)C1)C(=O)N1CCC[C@H](N1)C(=O)OCC(C)(C)C2
Response line: 0.1 to 1 µM

###

# SYSTEM_UNDER_TEST: NRAS Q61K (Homo sapiens, UniProt P01111+P62937, Q61K)
# Sequence (P01111 whole entry Q61K): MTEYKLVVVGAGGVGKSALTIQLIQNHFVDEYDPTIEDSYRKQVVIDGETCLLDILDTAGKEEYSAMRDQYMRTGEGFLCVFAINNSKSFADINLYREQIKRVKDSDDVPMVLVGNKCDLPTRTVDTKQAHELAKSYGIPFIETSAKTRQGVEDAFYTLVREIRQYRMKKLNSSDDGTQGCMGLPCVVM
# Sequence (P62937 whole entry): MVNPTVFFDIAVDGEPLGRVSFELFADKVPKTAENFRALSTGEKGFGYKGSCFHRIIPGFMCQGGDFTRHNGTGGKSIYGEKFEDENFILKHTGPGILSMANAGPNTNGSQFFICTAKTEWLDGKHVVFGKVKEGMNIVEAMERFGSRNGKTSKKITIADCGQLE
# PROTOCOL_DETAILS: Ras-Raf disruption / FRET / MOA assay (BRAF RBD)
# Assay type: biochemical
MEASURED_QUANTITY: IC50

molecule=CCn1c(-c2cccnc2[C@H](C)OC)c2c3cc(ccc31)-c1cc(cc(C(F)F)c1)C[C@H](NC(=O)[C@H](C1CCCC1)N(C)C(=O)CN(C)C(=O)[C@@H]1N[C@@H]1C1CC1)C(=O)N1CCC[C@H](N1)C(=O)OCC(C)(C)C2 measured_quantity=IC50 reading="1000 to 10000 nM"
molecule=CCn1c(-c2cccnc2[C@H](C)OC)c2c3cc(ccc31)-c1cc(O)cc(c1)C[C@H](NC(=O)[C@H](C1CCCC1)N(C)C(=O)CN(C)C(=O)[C@@H]1N[C@@H]1C1(F)CC1)C(=O)N1CCC[C@H](N1)C(=O)OCC(C)(C)C2 measured_quantity=IC50 reading="100 to 1000 nM"
molecule=CCn1c(-c2cc(N3CCN(C)CC3)cnc2[C@H](C)OC)c2c3cc(ccc31)-c1cc(O)cc(c1)C[C@H](NC(=O)[C@H](C1CCCC1)N(C)C(=O)CN(C)C(=O)[C@@H]1N[C@@H]1C1CC1)C(=O)N1CCC[C@H](N1)C(=O)OCC(C)(C)C2 measured_quantity=IC50 reading="10 to 100 nM"

Prompt line: I'd like to know its IC50. The molecule in question is CCn1c(-c2cccnc2[C@H](C)OC)c2c3cc(ccc31)-c1cc(O)cc(c1)C[C@H](NC(=O)[C@H](C1CCCC1)N(C)C(=O)[C@H](C)N(C)C(=O)[C@@H]1N[C@@H]1C1CC1)C(=O)N1CCC[C@H](N1)C(=O)OCC(C)(C)C2
Response line: 100 to 1000 nM

Prompt line: # input molecule: CCn1c(-c2cccnc2[C@H](C)OC)c2c3cc(ccc31)-c1cc(O)cc(c1)C[C@H](NC(=O)[C@H](C(C)C)N(C)C(=O)CN(C)C(=O)[C@@H]1CN1CC1(C)COC1)C(=O)N1CCC[C@H](N1)C(=O)OCC(C)(C)C2 (some centres unmarked) ; wanted: its IC50
Response line: 100 to 1000 nM
